- PROTOCOL NOTES: Inhibition of Metallo-beta-lactamase VIM-2 (unknown origin)
- Design: species or system Bacteria
// reported IC50 for each item listed
Numeric only. Scale: nM

# annotated cases, reported IC50 shown
>  <COMPOUND>
Nc1nc2c(-c3ccc(S(=O)(=O)C4CCNCC4)c(S(N)(=O)=O)c3-c3nn[nH]n3)cccc2s1

>  <QUANTITATIVE READOUT>
0.4

$$$$
>  <COMPOUND>
NCCS(=O)(=O)c1ccc(-c2cccc3sc(N)nc23)c(-c2nn[nH]n2)c1S(N)(=O)=O

>  <QUANTITATIVE READOUT>
1

$$$$
>  <COMPOUND>
NS(=O)(=O)c1c(S(=O)(=O)C2CNC2)ccc(-c2ccc(C3CCNCC3)cc2)c1-c1nn[nH]n1

>  <QUANTITATIVE READOUT>
2.8

$$$$
>  <COMPOUND>
NS(=O)(=O)c1c([S+]([O-])C2CCNCC2)ccc(-c2ccc(C3CCNCC3)cc2)c1-c1nnn[nH]1 (configuration not stated)

>  <QUANTITATIVE READOUT>
1090

$$$$
>  <COMPOUND>
CS(=O)(=O)c1ccc(-c2ccc(C3CCNCC3)cc2)c(-c2nnn[nH]2)c1S(N)(=O)=O

>  <QUANTITATIVE READOUT>
2.6

$$$$

// field: IC50; key: NS(=O)(=O)c1c(S(=O)(=O)C2CCNCC2)ccc(-c2ccc(C3CCNCC3)cc2)c1-c1nnn[nH]1 ; value = 4.1

# IC50 of NS(=O)(=O)c1c(CC2CCNCC2)ccc(-c2ccc(C3CCNCC3)cc2)c1-c1nn[nH]n1 = 1230

* * *

- PROTOCOL NOTES: Unbound fraction in rat plasma at 1 mg/kg, iv
- Type: ADME, organism-based
PARAMETER: fraction unbound
No unit in the answer, please; the number alone is enough.

>  <CPD SMILES>
NS(=O)(=O)c1c(S(=O)(=O)C2CCNCC2)ccc(-c2ccc(C3CCNCC3)cc2)c1-c1nnn[nH]1

>  <fraction unbound>
0.66

$$$$

Query molecule follows.
Reported fraction unbound of NCCS(=O)(=O)c1ccc(-c2cccc3sc(N)nc23)c(-c2nn[nH]n2)c1S(N)(=O)=O : 0.37

* * *

- PROTOCOL NOTES: MRT in rat at 1 mg/kg, iv
- Format: ADME, organism-based
- STATED CONDITIONS: in vivo
PARAMETER: MRT (min)
Just the number please, in min, no unit attached.

>  <CPD SMILES>
NS(=O)(=O)c1c(S(=O)(=O)C2CCNCC2)ccc(-c2ccc(C3CCNCC3)cc2)c1-c1nnn[nH]1

>  <MRT / min>
46.8

$$$$

Now let's try a different one.
Noted for NCCS(=O)(=O)c1ccc(-c2cccc3sc(N)nc23)c(-c2nn[nH]n2)c1S(N)(=O)=O : its MRT reads 13.8

* * *

- Test system: Escherichia coli
- PROTOCOL NOTES: Antibacterial activity against NDM-1 expressing Escherichia coli CLB30016 assessed as inhibition of bacterial growth in presence of IMI by absorbance based assay
- Assay type: functional
PARAMETER: MITC95 (µM)
State the answer as a number, implicitly in µM.

>  <MOLECULE>
NS(=O)(=O)c1c(SC2CCNCC2)ccc(-c2ccc(C3CCNCC3)cc2)c1-c1nnn[nH]1

>  <MITC95, µM>
1.56

$$$$
>  <MOLECULE>
CS(=O)(=O)c1ccc(-c2ccc(C3CCNCC3)cc2)c(-c2nnn[nH]2)c1S(N)(=O)=O

>  <MITC95, µM>
3.13

$$$$
>  <MOLECULE>
NS(=O)(=O)c1cccc(-c2ccc(C3CCNCC3)cc2)c1-c1nn[nH]n1

>  <MITC95, µM>
3

$$$$
>  <MOLECULE>
NS(=O)(=O)c1c([S+]([O-])C2CCNCC2)ccc(-c2ccc(C3CCNCC3)cc2)c1-c1nnn[nH]1 (stereo not given)

>  <MITC95, µM>
3.13

$$$$

Simply: NCCS(=O)(=O)c1ccc(-c2ccc(C3CCNCC3)cc2)c(-c2nn[nH]n2)c1S(N)(=O)=O , Escherichia coli, MITC95 = 1.56

* * *

- Tested on: Staphylococcus aureus
- PROTOCOL NOTES: Antibacterial activity against wild type Staphylococcus aureus
- Type: functional, organism-based
pIC50: −log10 of the molar value.
PARAMETER: pIC50

Reported pIC50 ( NCCS(=O)(=O)c1ccc(-c2cccc3sc(N)nc23)c(-c2nn[nH]n2)c1S(N)(=O)=O ) = < 3.70

* * *

- PROTOCOL NOTES: AUC in rat at 1 mg/kg, iv
- Format: ADME, organism-based
- STATED CONDITIONS: in vivo
Measured AUC accompanies every entry in the list below.
Express your answer in µM·h, writing the number without its unit.

Short answer for NCCS(=O)(=O)c1ccc(-c2cccc3sc(N)nc23)c(-c2nn[nH]n2)c1S(N)(=O)=O : AUC was 1.15

Record NS(=O)(=O)c1c(S(=O)(=O)C2CCNCC2)ccc(-c2ccc(C3CCNCC3)cc2)c1-c1nnn[nH]1 , field AUC: 8.4

* * *

// MITC95 lookup, one value per entry
- Test system: Pseudomonas aeruginosa
- PROTOCOL NOTES: Antibacterial activity against mutant isogenic efflux/IMP-1 expressing Pseudomonas aeruginosa MB9799 assessed as inhibition of bacterial growth in presence of IMI by absorbance based assay
- Type: functional
Quote the value and follow it with the unit of measurement.

Below are worked cases with known answers.
>  <CPD SMILES>
CS(=O)(=O)c1ccc(-c2ccc(C3CCNCC3)cc2)c(-c2nnn[nH]2)c1S(N)(=O)=O

>  <MITC95>
0.78 µM

$$$$
>  <CPD SMILES>
NS(=O)(=O)c1c(S(=O)(=O)C2CCNCC2)ccc(-c2ccc(C3CCNCC3)cc2)c1-c1nnn[nH]1

>  <MITC95>
0.78 µM

$$$$

Note: attention shifts to another entry.
Documented MITC95 of Cc1ccc(-c2ccc(S(=O)(=O)C3CNC3)c(S(N)(=O)=O)c2-c2nn[nH]n2)c2nc(N)[nH]c12 : 0.78 µM

* * *

- PROTOCOL NOTES: Inhibition of Metallo-beta-lactamase IMP-1 (unknown origin)
- Set-up: species or system Bacteria
Catalogue of log10 of IC50 values
Heads up, the numbers here are log10 of IC50 in nM units.

Below, 5 compounds whose answers are already recorded.
>  <COMPOUND>
NS(=O)(=O)c1c([S+]([O-])C2CCNCC2)ccc(-c2ccc(C3CCNCC3)cc2)c1-c1nnn[nH]1 (stereo not drawn)

>  <log10 of IC50>
0.77

$$$$
>  <COMPOUND>
Cc1ccc(-c2cccc(S(N)(=O)=O)c2-c2nnn[nH]2)cc1

>  <log10 of IC50>
1.81

$$$$
>  <COMPOUND>
Nc1nc2c(-c3ccc(S(=O)(=O)C4CCNCC4)c(S(N)(=O)=O)c3-c3nn[nH]n3)cccc2s1

>  <log10 of IC50>
-0.34

$$$$
>  <COMPOUND>
Cc1ccc(-c2ccc(S(=O)(=O)C3CNC3)c(S(N)(=O)=O)c2-c2nn[nH]n2)c2nc(N)[nH]c12

>  <log10 of IC50>
-0.33

$$$$
>  <COMPOUND>
NS(=O)(=O)c1c(S(=O)(=O)C2CNC2)ccc(-c2ccc(C3CCNCC3)cc2)c1-c1nn[nH]n1

>  <log10 of IC50>
-0.68

$$$$

Lab note: NCCS(=O)(=O)c1ccc(-c2ccc(C3CCNCC3)cc2)c(-c2nn[nH]n2)c1S(N)(=O)=O gave log10 of IC50 of -0.77

Consider NCCS(=O)(=O)c1ccc(-c2cccc3sc(N)nc23)c(-c2nn[nH]n2)c1S(N)(=O)=O . Its measured log10 of IC50 is -0.64

CS(=O)(=O)c1ccc(-c2ccc(C3CCNCC3)cc2)c(-c2nnn[nH]2)c1S(N)(=O)=O yielded log10 of IC50 of -1.00

* * *

MITC95 values for the compounds below.
- System: Klebsiella pneumoniae
- PROTOCOL NOTES: Antibacterial activity against VIM-1 expressing Klebsiella pneumoniae IHMA599644 assessed as inhibition of bacterial growth in presence of IMI by absorbance based assay
- Type: functional

Below, each entry is followed by its recorded MITC95 result.
>  <COMPOUND>
NS(=O)(=O)c1c([S+]([O-])C2CCNCC2)ccc(-c2ccc(C3CCNCC3)cc2)c1-c1nnn[nH]1 (centres undefined)

>  <MITC95>
6.25 µM

$$$$
>  <COMPOUND>
NS(=O)(=O)c1c(CC2CCNCC2)ccc(-c2ccc(C3CCNCC3)cc2)c1-c1nn[nH]n1

>  <MITC95>
2.3 µM

$$$$
>  <COMPOUND>
NS(=O)(=O)c1c(SC2CCNCC2)ccc(-c2ccc(C3CCNCC3)cc2)c1-c1nnn[nH]1

>  <MITC95>
6.25 µM

$$$$

Could you now consider this next compound?
Record Nc1nc2c(-c3ccc(S(=O)(=O)C4CCNCC4)c(S(N)(=O)=O)c3-c3nn[nH]n3)cccc2s1 . Reported MITC95: 6.25 µM

Entry source: ChEMBL document CHEMBL6083247
